Field: relative viability. Provide a value for each of the molecules that follow.
- Test system: ChaGo-K-1
- Test: relative viability (nuclei count vs DMSO), 5 days (fraction); higher = more cells survive
- Applied Conditions: first compound 0.3162 µM

{"Molecule": "O=c1cc(N2CCOCC2)oc2c(-c3cccc4c3sc3ccccc34)cccc12 + COc1cccc2cc(-c3nc([C@H]4CC[C@H](C(=O)O)CC4)n4ncnc(N)c34)[nH]c12 [OSI-027] (partner 0.5 µM)", "relative viability": 0.706}
{"Molecule": "O=c1cc(N2CCOCC2)oc2c(-c3cccc4c3sc3ccccc34)cccc12 + CC(=O)c1c(C)c2cnc(Nc3ccc(N4CCNCC4)cn3)nc2n(C2CCCC2)c1=O [Palbociclib] (partner 0.5 µM)", "relative viability": 0.947}
{"Molecule": "CCN(CC)CCCCNc1ncc2cc(-c3cc(OC)cc(OC)c3)c(NC(=O)NC(C)(C)C)nc2n1 + Cc1nc(Nc2ncc(C(=O)Nc3c(C)cccc3Cl)s2)cc(N2CCN(CCO)CC2)n1 [Dasatinib] (partner 0.075 µM)", "relative viability": 0.643}
{"Molecule": "CCN(CC)CCCCNc1ncc2cc(-c3cc(OC)cc(OC)c3)c(NC(=O)NC(C)(C)C)nc2n1 + Nc1ncn([C@H]2C[C@H](O)[C@@H](CO)O2)c(=O)n1 [Decitabine] (partner 2 µM)", "relative viability": 0.539}

Pending molecule:
Query: Determine its reported relative viability: O=c1cc(N2CCOCC2)oc2c(-c3cccc4c3sc3ccccc34)cccc12 + N=C(N)NC(=N)NCCc1ccccc1 [Phenformin] (partner 250 µM)
Response: 0.547

----------
Field: relative viability. Provide a value for each of the compounds that follow.
- Tested on: LXF-289
- Test: relative viability (nuclei count vs DMSO), 5 days (fraction); higher = more cells survive
- Applied Conditions: first compound 2 µM
Numbers only.

Some solved entries appear below for comparison.
{"Compound": "COCC1(CO)C(=O)C2CCN1CC2 (configuration not stated) [PRIMA-1MET] + O=C(CCCCCCC(=O)Nc1ccccc1)NO [Vorinostat] (partner 1 µM)", "relative viability": 0.79}
{"Compound": "COCC1(CO)C(=O)C2CCN1CC2 (configuration not stated) [PRIMA-1MET] + CC1(C)CCC(c2ccc(Cl)cc2)=C(CN2CCN(c3ccc(C(=O)NS(=O)(=O)c4ccc(N[C@H](CCN5CCOCC5)CSc5ccccc5)c(S(=O)(=O)C(F)(F)F)c4)cc3)CC2)C1 [Navitoclax] (partner 0.5 µM)", "relative viability": 0.93}
{"Compound": "COCC1(CO)C(=O)C2CCN1CC2 (configuration not stated) [PRIMA-1MET] + Nc1ncn([C@H]2C[C@H](O)[C@@H](CO)O2)c(=O)n1 [Decitabine] (partner 2 µM)", "relative viability": 0.349}

Batch lookup, relative viability per entry.
1. COCC1(CO)C(=O)C2CCN1CC2 (configuration not stated) [PRIMA-1MET] + C[C@]1(O)C[C@@H](c2nc(-c3ccc4ccc(-c5ccccc5)nc4c3)c3c(N)nccn32)C1 [Linsitinib] (partner 1 µM)
2. COCC1(CO)C(=O)C2CCN1CC2 (configuration not stated) [PRIMA-1MET] + CCNC(=O)c1noc(-c2cc(C(C)C)c(O)cc2O)c1-c1ccc(CN2CCOCC2)cc1 [Luminespib] (partner 0.01 µM)
3. COCC1(CO)C(=O)C2CCN1CC2 (configuration not stated) [PRIMA-1MET] + NC(=O)Nc1cc(-c2cccc(F)c2)sc1C(=O)N[C@H]1CCCNC1 [AZD7762] (partner 0.2 µM)

Response:
1.04
0.74
1.13

Query: Determine its reported relative viability: COCC1(CO)C(=O)C2CCN1CC2 (configuration not stated) [PRIMA-1MET] + O=C(c1cc(Cc2n[nH]c(=O)c3ccccc23)ccc1F)N1CCN(C(=O)C2CC2)CC1 [Olaparib] (partner 8 µM)
Response: 1.06

----------
- System: HCC-78
- Test: relative viability (nuclei count vs DMSO), 5 days (fraction); higher = more cells survive
- Applied Conditions: first compound 20 µM
Field: relative viability. Provide a value for each of the compounds that follow.
Answers are plain numbers.

Some solved entries appear below for comparison.
{"Compound": "COCC1(CO)C(=O)C2CCN1CC2 (configuration not stated) [PRIMA-1MET] + O=C(CCCCCCC(=O)Nc1ccccc1)NO [Vorinostat] (partner 1 µM)", "Target Or Test System": "HCC-78", "relative viability": 0.102}
{"Compound": "COCC1(CO)C(=O)C2CCN1CC2 (configuration not stated) [PRIMA-1MET] + Nc1ncn([C@H]2C[C@H](O)[C@@H](CO)O2)c(=O)n1 [Decitabine] (partner 2 µM)", "Target Or Test System": "HCC-78", "relative viability": 0.377}

Batch lookup, relative viability per entry.
1. COCC1(CO)C(=O)C2CCN1CC2 (configuration not stated) [PRIMA-1MET] + CC(=O)Nc1cccc(-n2c(=O)n(C3CC3)c(=O)c3c(Nc4ccc(I)cc4F)n(C)c(=O)c(C)c32)c1 [Trametinib] (partner 0.02 µM)
2. COCC1(CO)C(=O)C2CCN1CC2 (configuration not stated) [PRIMA-1MET] + Nc1nc2[nH]cc(CCc3ccc(C(=O)N[C@@H](CCC(=O)O)C(=O)O)cc3)c2c(=O)[nH]1 [Pemetrexed] (partner 0.2 µM)
3. COCC1(CO)C(=O)C2CCN1CC2 (configuration not stated) [PRIMA-1MET] + Cc1nc(Nc2ncc(C(=O)Nc3c(C)cccc3Cl)s2)cc(N2CCN(CCO)CC2)n1 [Dasatinib] (partner 0.075 µM)
4. COCC1(CO)C(=O)C2CCN1CC2 (configuration not stated) [PRIMA-1MET] + CS(=O)(=O)N1CCN(Cc2cc3nc(-c4cccc5[nH]ncc45)nc(N4CCOCC4)c3s2)CC1 [Pictilisib] (partner 1 µM)
5. COCC1(CO)C(=O)C2CCN1CC2 (configuration not stated) [PRIMA-1MET] + C[C@@H](Oc1cc(-c2cnn(C3CCNCC3)c2)cnc1N)c1c(Cl)ccc(F)c1Cl [Crizotinib] (partner 1 µM)

Response:
1. 0.331
2. 0.864
3. 0.335
4. 0.0597
5. 0.0613

----------
- System: SW 900
- Test: relative viability (nuclei count vs DMSO), 5 days (fraction); higher = more cells survive
- Applied Conditions: first compound 0.08 µM
Field: relative viability. Provide a value for each of the compounds that follow.

{"Compound": "COc1nc(C)cnc1NS(=O)(=O)c1cccnc1-c1ccc(-c2nnco2)cc1 [Zibotentan] + COc1cc2c(Oc3ccc(NC(=O)C4(C(=O)Nc5ccc(F)cc5)CC4)cc3F)ccnc2cc1OCCCN1CCOCC1 [Foretinib] (partner 0.25 µM)", "Target Or Test System": "SW 900", "relative viability": 0.997}

Batch lookup, relative viability per entry.
1. COc1nc(C)cnc1NS(=O)(=O)c1cccnc1-c1ccc(-c2nnco2)cc1 [Zibotentan] + Cc1cc(Nc2cc(N3CCN(C)CC3)nc(Sc3ccc(NC(=O)C4CC4)cc3)n2)n[nH]1 [Tozasertib] (partner 0.1 µM)
2. COc1nc(C)cnc1NS(=O)(=O)c1cccnc1-c1ccc(-c2nnco2)cc1 [Zibotentan] + CC(=O)c1c(C)c2cnc(Nc3ccc(N4CCNCC4)cn3)nc2n(C2CCCC2)c1=O [Palbociclib] (partner 0.5 µM)
3. COc1nc(C)cnc1NS(=O)(=O)c1cccnc1-c1ccc(-c2nnco2)cc1 [Zibotentan] + CC(=O)Nc1cccc(-n2c(=O)n(C3CC3)c(=O)c3c(Nc4ccc(I)cc4F)n(C)c(=O)c(C)c32)c1 [Trametinib] (partner 0.02 µM)
4. O=c1cc(-c2cccc3c2Sc2ccccc2S3)oc(N2CCOCC2)c1 + Cc1nc(Nc2ncc(C(=O)Nc3c(C)cccc3Cl)s2)cc(N2CCN(CCO)CC2)n1 [Dasatinib] (partner 0.075 µM)

Response:
0.553
0.541
0.893
0.503

Batch lookup, relative viability per entry.
1. COc1nc(C)cnc1NS(=O)(=O)c1cccnc1-c1ccc(-c2nnco2)cc1 [Zibotentan] + NC(=O)Nc1cc(-c2cccc(F)c2)sc1C(=O)N[C@H]1CCCNC1 [AZD7762] (partner 0.2 µM)
2. O=c1cc(-c2cccc3c2Sc2ccccc2S3)oc(N2CCOCC2)c1 + Cc1cc(Nc2cc(N3CCN(C)CC3)nc(Sc3ccc(NC(=O)C4CC4)cc3)n2)n[nH]1 [Tozasertib] (partner 0.1 µM)

Response:
0.68
0.754

----------
Field: relative viability. Provide a value for each of the compounds that follow.
- Test system: NCI-H1648
- Test: relative viability (nuclei count vs DMSO), 5 days (fraction); higher = more cells survive
- Applied Conditions: first compound 0.8 µM

Some solved entries appear below for comparison.
{"Compound": "COc1nc(C)cnc1NS(=O)(=O)c1cccnc1-c1ccc(-c2nnco2)cc1 [Zibotentan] + CC(=O)c1c(C)c2cnc(Nc3ccc(N4CCNCC4)cn3)nc2n(C2CCCC2)c1=O [Palbociclib] (partner 0.5 µM)", "relative viability": 0.312}
{"Compound": "COc1nc(C)cnc1NS(=O)(=O)c1cccnc1-c1ccc(-c2nnco2)cc1 [Zibotentan] + Nc1nc2[nH]cc(CCc3ccc(C(=O)N[C@@H](CCC(=O)O)C(=O)O)cc3)c2c(=O)[nH]1 [Pemetrexed] (partner 0.2 µM)", "relative viability": 0.532}
{"Compound": "COc1nc(C)cnc1NS(=O)(=O)c1cccnc1-c1ccc(-c2nnco2)cc1 [Zibotentan] + CC(=O)Nc1cccc(-n2c(=O)n(C3CC3)c(=O)c3c(Nc4ccc(I)cc4F)n(C)c(=O)c(C)c32)c1 [Trametinib] (partner 0.02 µM)", "relative viability": 0.442}
{"Compound": "O=c1cc(-c2cccc3c2Sc2ccccc2S3)oc(N2CCOCC2)c1 + NC(=O)Nc1cc(-c2cccc(F)c2)sc1C(=O)N[C@H]1CCCNC1 [AZD7762] (partner 0.2 µM)", "relative viability": 0.734}

Batch lookup, relative viability per entry.
1. COc1nc(C)cnc1NS(=O)(=O)c1cccnc1-c1ccc(-c2nnco2)cc1 [Zibotentan] + COc1cccc2cc(-c3nc([C@H]4CC[C@H](C(=O)O)CC4)n4ncnc(N)c34)[nH]c12 [OSI-027] (partner 0.5 µM)
2. O=c1cc(-c2cccc3c2Sc2ccccc2S3)oc(N2CCOCC2)c1 + COc1cccc2cc(-c3nc([C@H]4CC[C@H](C(=O)O)CC4)n4ncnc(N)c34)[nH]c12 [OSI-027] (partner 0.5 µM)
3. COc1nc(C)cnc1NS(=O)(=O)c1cccnc1-c1ccc(-c2nnco2)cc1 [Zibotentan] + Nc1ncn([C@H]2C[C@H](O)[C@@H](CO)O2)c(=O)n1 [Decitabine] (partner 2 µM)

Response:
1. 0.256
2. 0.277
3. 0.519

Batch lookup, relative viability per entry.
1. O=c1cc(-c2cccc3c2Sc2ccccc2S3)oc(N2CCOCC2)c1 + Nc1ncn([C@H]2C[C@H](O)[C@@H](CO)O2)c(=O)n1 [Decitabine] (partner 2 µM)
2. COc1nc(C)cnc1NS(=O)(=O)c1cccnc1-c1ccc(-c2nnco2)cc1 [Zibotentan] + O=C(c1cc(Cc2n[nH]c(=O)c3ccccc23)ccc1F)N1CCN(C(=O)C2CC2)CC1 [Olaparib] (partner 8 µM)

Response:
1: 0.553; 2: 0.85
